- experimental-target: mouse melanocortin-4 receptor (mouse, UniProt P56450 1-332)
- Sequence (P56450 whole entry): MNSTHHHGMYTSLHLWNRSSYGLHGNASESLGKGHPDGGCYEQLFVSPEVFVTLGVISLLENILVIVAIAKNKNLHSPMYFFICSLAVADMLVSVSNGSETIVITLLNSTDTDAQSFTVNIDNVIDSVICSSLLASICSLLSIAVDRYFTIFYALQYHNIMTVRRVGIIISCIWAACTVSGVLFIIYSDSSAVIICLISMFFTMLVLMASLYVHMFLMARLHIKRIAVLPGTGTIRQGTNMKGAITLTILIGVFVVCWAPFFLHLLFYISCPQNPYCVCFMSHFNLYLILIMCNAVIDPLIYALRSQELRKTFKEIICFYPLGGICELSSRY
- measurement-protocol: cell-based or functional assay
Square brackets hold non-standard residues; d marks the D form.
measured-quantity: antagonist pA2 (Schild, agonist NDP-MSH)

What value of antagonist pA2 (Schild, agonist NDP-MSH) has been reported for the following binder? cyclo(PRFFDAF[dP]) [c[Pro-Arg-Phe-Phe-Asp-Ala-Phe-DPro]] 6.79

Then cyclo(PRFFTAF[dP]) (SMILES C[C@@H]1NC(=O)[C@H]([C@@H](C)O)NC(=O)[C@H](Cc2ccccc2)NC(=O)[C@H](Cc2ccccc2)NC(=O)[C@H](CCCNC(=N)N)NC(=O)[C@@H]2CCCN2C(=O)[C@H]2CCCN2C(=O)[C@H](Cc2ccccc2)NC1=O) [c[Pro-Arg-Phe-Phe-Thr-Ala-Phe-DPro]] ? 7.76

Then cyclo(PRFFSAF[dP]) [c[Pro-Arg-Phe-Phe-Ser-Ala-Phe-DPro]] ? 7.7
